molecular target: Active phosphorylated His6-tagged ERK2 WT (rat (p-0033 says mouse)), P63086; conditions: modification not given; phosphorylated (active form; sites not given)
Ends that are not written are not given here.

[
  {
    "BINDER": "GLQERRGSNVSLTL (not fully specified (some residues, N-terminus)) [PTPN5]",
    "IC50 (µM)": 42
  }
]
